system: SARS-CoV-2 Delta variant; assay: microbe, parasite or virus in culture; assay type: cell-based; conditions: Severe acute respiratory syndrome coronavirus 2, Calu-3, read-out: Antiviral efficacy EC50 (95% CI)
Provide the reported pEC50 of each item.
Numbers only, as −log10 of the molar value.

Would you be so kind as to report pEC50 for each listed record?
1. CN(C)C(=O)COC(=O)Cc1ccc(OC(=O)c2ccc(NC(=N)N)cc2)cc1
2. N=C(N)c1ccc2cc(OC(=O)c3ccc(N=C(N)N)cc3)ccc2c1

6.96
7.58
